This collection of values is drawn from patent EP0082266A1.

System: Aconitinarrhythmie der Ratte
Experiment: Antiarrhythmic activity, aconitine-induced arrhythmia in the anaesthetised rat (oral dosing, aconitine i.v. infusion 60 min later)
Type: in vivo, Ratten (Stamm: Sprague Dawley)
Settings: Rattus norvegicus, po, 1 h, read-out: Wirksame Dosis ED 50 %
Description: Zur Bestimmung der antiarrhythmischen Wirksamkeit werden die Substanzen Ratten (Stamm: Sprague Dawley, Gewicht 200 bis 250 g) oral appliziert. 45 min später werden die Tiere mit Thiobutabarbital-Natrium (100,0 mg/kg i.p.) narkotisiert. Als arrhythmogene Substanz dient Aconitin, das 60 min nach Substanzapplikation i.v. infundiert wird (Dosierungsgeschwindigkeit: 0,005 mg/kg x min). […]
Could you please classify the records by ED50 using these ranges: band 1: < 9 mg/kg; band 2: ≥ 9 mg/kg and < 20 mg/kg; band 3: ≥ 20 mg/kg

Use the examples below as a reference point.
> print(dat)
                                   compound  categorylabel
1  CC(C)NCC(CCCN(C)CCc1ccccc1)(c1ccccc1)C(C)C (stereo not drawn) [Beispiel 11]         band 1
2  CNCC(CCCN(C)CCc1ccc(OC)c(OC)c1)(c1ccc(OC)c(OC)c1)C(C)C (stereo not drawn) [Beispiel 32]         band 3
3  CNCC(CCCN(C)CCc1ccc(OC)c(OC)c1)(c1cc(OC)c(OC)c(OC)c1)C(C)C (stereo not drawn) [Beispiel 33]         band 3
4  CCCCC(CCCN(C)CCc1ccccc1)(CN(C)C)c1ccccc1 (stereo not drawn) [Beispiel 36]         band 1
5  C=CC1CN2CCC1CC2C(O)c1ccnc2ccc(OC)cc12 (stereo not drawn) [Chinidin, reference compound]         band 3
6  CCNCC(CCCN(C)CCc1ccc(OC)c(OC)c1)(c1cc(OC)c(OC)c(OC)c1)C(C)C (stereo not drawn) [Beispiel 20]         band 2
7  CNCC(CCCN(C)CCc1ccccc1)(c1ccccc1)C(C)C (stereo not drawn) [Beispiel 30]         band 2
8  CN(C)CC(CCCN(C)CCc1ccccc1)c1ccccc1 (stereo not drawn) [Beispiel 34]         band 2

Turning now to a further record.
Asked: Quick check: band for CN(C)CC(C)(CCCN(C)CCc1ccccc1)c1ccccc1 (stereo not drawn) [Beispiel 35]
Given back: band 1

* * *

test system: Ratte; experiment: Acute toxicity / tolerability in the rat after oral dosing (toxic symptoms: changes of baseline ECG, cyanosis, convulsions); format: in vivo; conditions: per os, dose after which the first toxic symptoms are observed
valueKind: Toxizität Dosis (mg/kg)
One number for each entry, in mg/kg.

Here is how some compounds turned out for Toxizität Dosis.
> print(dat)
                                   compound        valuekind  observedvalue
1  CNCC(CCCN(C)CCc1ccccc1)(c1ccccc1)C(C)C (stereo not shown) [Beispiel 30]  Toxizität Dosis            464
2  C=CC1CN2CCC1CC2C(O)c1ccnc2ccc(OC)cc12 (stereo not shown) [Chinidin, reference compound]  Toxizität Dosis            464
3  CCNCC(CCCN(C)CCc1ccc(OC)c(OC)c1)(c1cc(OC)c(OC)c(OC)c1)C(C)C (stereo not shown) [Beispiel 20]  Toxizität Dosis            464

List Toxizität Dosis for every entry below, keeping the order given.
1. CC(C)C(CCCN(C)CCc1ccccc1)(CN(C)C)c1ccccc1 (stereo not shown) [Beispiel 37]
2. CC(C)CNCC(CCCN(C)CCc1ccccc1)(c1ccccc1)C(C)C (stereo not shown) [Beispiel 14]

Given back:
1. 100
2. 215

Respectfully, I request Toxizität Dosis for each entry included below.
1. CCCNCC(CCCN(C)CCc1ccccc1)(c1ccccc1)C(C)C (stereo not shown) [Beispiel 10]
2. CCC(C)NCC(CCCN(C)CCc1ccccc1)(c1ccccc1)C(C)C (stereo not shown) [Beispiel 13]

Given back:
215
215

* * *

Answer each item with its documented MTD.
assay: Acute toxicity / tolerability in the rat after oral dosing (toxic symptoms: changes of baseline ECG, cyanosis, convulsions); format: in vivo; conditions: in vivo, po, per os, highest tolerated dose, at which the maximal effect was read, read-out: Maximale Wirkung Dosis (maximal tolerierte Dosis)
One number for each entry, in mg/kg.

# count of solved cases: 4
> print(dat)
                                   compound  unitsofmeasure  observedvalue
1  CC(C)CNCC(CCCN(C)CCc1ccccc1)(c1ccccc1)C(C)C (stereo not drawn) [Beispiel 14]           mg/kg            100
2  CC(C)C(CCCN(C)CCc1ccccc1)(CN(C)C)c1ccccc1 (stereo not drawn) [Beispiel 37]           mg/kg           46.4
3  CNCC(CCCN(C)CCc1ccccc1)(c1ccccc1)C(C)C (stereo not drawn) [Beispiel 30]           mg/kg            215
4  CCC(C)NCC(CCCN(C)CCc1ccccc1)(c1ccccc1)C(C)C (stereo not drawn) [Beispiel 13]           mg/kg            100

For each entry beneath this line, provide reported MTD.
1. CCCNCC(CCCN(C)CCc1ccccc1)(c1ccccc1)C(C)C (stereo not drawn) [Beispiel 10]
2. CCNCC(CCCN(C)CCc1ccc(OC)c(OC)c1)(c1cc(OC)c(OC)c(OC)c1)C(C)C (stereo not drawn) [Beispiel 20]

Given back:
1. 100
2. 215
